From: ChEMBL document CHEMBL1154298

Target: Cruzipain (Trypanosoma cruzi)
Assay: Inhibition of Trypanosoma cruzi cruzain at 1 uM after 5 mins
outcome-measure: inhibition

CC(C)(C)c1cc(C(=O)N[C@H](/C=C/S(=O)(=O)c2ccccc2)CCc2ccccc2)n(Cc2ccccc2)n1 2%

Observed inhibition, Cruzipain (Trypanosoma cruzi), `O=C(N[C@H](/C=C/S(=O)(=O)c1ccccc1)CCc1ccccc1)c1ccccc1C(=O)c1ccc(Cl)cc1` : 3%

Tested on Cruzipain (Trypanosoma cruzi): `Cc1nc(-c2ccccc2)sc1C(=O)N[C@H](/C=C/S(=O)(=O)c1ccccc1)CCc1ccccc1` . Observed inhibition: < 5%

Given the compound `O=C(N[C@H](/C=C/S(=O)(=O)c1ccccc1)CCc1ccccc1)c1cc(-c2ccncc2)no1` and test system Cruzipain (Trypanosoma cruzi), the measured inhibition is < 5%

Log: Cruzipain (Trypanosoma cruzi), compound `O=C(N[C@H](/C=C/S(=O)(=O)c1ccccc1)CCc1ccccc1)c1cc(-c2ccccn2)no1` , inhibition = < 5%

Assay Cruzipain (Trypanosoma cruzi), sample `Cc1onc(-c2ccc(F)cc2)c1C(=O)N[C@H](/C=C/S(=O)(=O)c1ccccc1)CCc1ccccc1` , inhibition read: 12.5%

====

# Cathepsin B-like cysteine protease (Trypanosoma brucei, UniProt Q6R7Z5): IC50 values follow
# Sequence (Q6R7Z5 whole entry): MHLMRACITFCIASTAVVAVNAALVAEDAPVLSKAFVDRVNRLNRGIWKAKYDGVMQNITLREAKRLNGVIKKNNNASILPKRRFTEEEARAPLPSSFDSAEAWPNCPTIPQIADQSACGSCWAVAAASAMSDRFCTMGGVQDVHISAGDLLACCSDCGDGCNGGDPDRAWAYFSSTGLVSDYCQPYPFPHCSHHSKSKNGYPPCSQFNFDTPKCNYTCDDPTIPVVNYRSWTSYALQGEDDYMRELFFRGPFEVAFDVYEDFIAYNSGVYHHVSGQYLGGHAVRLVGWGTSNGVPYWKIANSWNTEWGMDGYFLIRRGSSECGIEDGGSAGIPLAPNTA

Some solved cases for reference:
CN1CCN(C(=O)N[C@@H](Cc2ccccc2)C(=O)N[C@H](/C=C/S(=O)(=O)c2ccccc2)CCc2ccccc2)CC1 4 µM
O=C(N[C@H](/C=C/S(=O)(=O)c1ccccc1)CCc1ccccc1)c1cc(-c2ccccc2)no1 40 µM
O=C(N[C@H](/C=C/S(=O)(=O)c1ccccc1)CCc1ccccc1)c1cc(-c2ccccn2)no1 > 100 µM

Next compound, please.
Documented IC50 of `Cc1nc(-c2cccnc2)sc1C(=O)N[C@H](/C=C/S(=O)(=O)c1ccccc1)CCc1ccccc1` : > 100 µM

====

Target or system Rhodesain (Trypanosoma brucei rhodesiense) (UniProt Q95PM0); recorded quantity Kinact.
Your reply should be a number followed by the unit it is expressed in.

O=C(N[C@H](/C=C/S(=O)(=O)c1ccccc1)CCc1ccccc1)[C@H]1CCCC[C@@H]1C(=O)c1ccc(Cl)cc1 0.0007 s⁻¹
O=C(N[C@H](/C=C/S(=O)(=O)c1ccccc1)CCc1ccccc1)c1cc(-c2ccccc2)no1 0.0031 s⁻¹
Cc1nc(-c2cnccn2)sc1C(=O)N[C@H](/C=C/S(=O)(=O)c1ccccc1)CCc1ccccc1 0.0079 s⁻¹
O=C(N[C@H](/C=C/S(=O)(=O)c1ccccc1)CCc1ccccc1)[C@@H]1CCCC[C@H]1C(=O)c1ccc(Cl)cc1 0.00051 s⁻¹
O=C(N[C@H](/C=C/S(=O)(=O)c1ccccc1)CCc1ccccc1)c1cc(-c2ccccn2)no1 0.0038 s⁻¹

Kinact reading for `Cc1nc(-c2ccccc2)sc1C(=O)N[C@H](/C=C/S(=O)(=O)c1ccccc1)CCc1ccccc1` : 0.0018 s⁻¹

Looking up `O=C(N[C@H](/C=C/S(=O)(=O)c1ccccc1)CCc1ccccc1)c1cc(-c2ccncc2)no1` , I found its Kinact recorded as 0.0091 s⁻¹

====

pIC50: −log10 of the molar value.
Here's a batch of compounds along with measured pIC50 for Cathepsin B-like cysteine protease (Trypanosoma brucei, UniProt Q6R7Z5).

In the examples that follow, each entry is paired with its recorded pIC50.
O=C(N[C@H](/C=C/S(=O)(=O)c1ccccc1)CCc1ccccc1)c1cc(-c2cccnc2)no1 < 4.00
Cc1nc(-c2cnccn2)sc1C(=O)N[C@H](/C=C/S(=O)(=O)c1ccccc1)CCc1ccccc1 < 4.00
O=C(N[C@H](/C=C/S(=O)(=O)c1ccccc1)CCc1ccccc1)c1cc(-c2ccncc2)no1 < 4.00
Cc1nc(-c2ccccc2)sc1C(=O)N[C@H](/C=C/S(=O)(=O)c1ccccc1)CCc1ccccc1 < 4.00
O=C(N[C@H](/C=C/S(=O)(=O)c1ccccc1)CCc1ccccc1)[C@H]1CCCC[C@@H]1C(=O)c1ccc(Cl)cc1 < 4.00

Simply: `O=C(N[C@H](/C=C/S(=O)(=O)c1ccccc1)CCc1ccccc1)[C@@H]1CCCC[C@H]1C(=O)c1ccc(Cl)cc1` , Cathepsin B-like cysteine protease (Trypanosoma brucei, UniProt Q6R7Z5), pIC50 = 4.80
